Where these numbers come from: patent US20250134907A1

target_of_assay: WT RXFP2 (Homo sapiens, UniProt Q8WXD0)
Construct: using full-length human RXFP1 and RXFP2 receptor constructs; FLAG; expressed in transfected cells; host or cells: HEK293T (transient, Lipofectamine2000)
Sequence (Q8WXD0 whole entry): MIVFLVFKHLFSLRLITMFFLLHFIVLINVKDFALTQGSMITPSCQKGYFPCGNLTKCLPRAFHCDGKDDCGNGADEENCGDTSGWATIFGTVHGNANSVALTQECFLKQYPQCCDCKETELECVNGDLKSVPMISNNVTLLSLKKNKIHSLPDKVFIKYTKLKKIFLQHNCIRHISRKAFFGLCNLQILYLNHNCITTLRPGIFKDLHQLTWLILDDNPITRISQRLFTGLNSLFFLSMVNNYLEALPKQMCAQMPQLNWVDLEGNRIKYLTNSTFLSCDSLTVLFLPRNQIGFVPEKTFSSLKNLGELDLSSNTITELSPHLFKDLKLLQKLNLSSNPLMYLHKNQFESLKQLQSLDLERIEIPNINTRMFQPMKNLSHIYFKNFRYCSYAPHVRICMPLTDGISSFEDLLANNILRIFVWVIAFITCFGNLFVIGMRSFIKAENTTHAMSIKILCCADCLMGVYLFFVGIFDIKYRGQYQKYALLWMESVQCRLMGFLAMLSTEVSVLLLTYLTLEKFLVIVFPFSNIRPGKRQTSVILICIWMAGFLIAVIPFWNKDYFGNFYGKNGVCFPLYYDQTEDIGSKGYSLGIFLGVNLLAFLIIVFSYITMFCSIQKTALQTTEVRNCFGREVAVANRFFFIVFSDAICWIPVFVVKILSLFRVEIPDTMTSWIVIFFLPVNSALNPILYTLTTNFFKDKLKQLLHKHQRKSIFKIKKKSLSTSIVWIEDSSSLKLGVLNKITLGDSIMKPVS
run_description: HTRF cAMP assay in HEK293T cells transiently transfected with WT RXFP2
Type: cell-based
condition_parameters: read-out: EC50 (μM or nM)
value_type: EC50 (µM)
All answers are understood in µM, so give the number only.

input: Find EC50 for "O=C1Nc2ccc(-c3cc(C(F)(F)F)cc(C(F)(F)F)c3)cc2C(=O)N2CCN(C(=O)COc3ccc(OC(F)(F)F)cc3I)C[C@@H]12" on WT RXFP2 (Homo sapiens, UniProt Q8WXD0) and write it down.
output: 0.012
